Tested on: B-Raf^V600E mutant A375 melanoma cell
Assay: Cell proliferation assay (CELLTITER 96), A375
Assay type: cell-based
Details: Homo sapiens, A-375; A375, 72 hours; read-out: Cytotoxicity (IC50 Ranking) A375 (B-Raf^V600E)
Procedure: Inhibition of cell growth by compounds was measured using CELLTITER 96® assay. The cytotoxicity of compounds was evaluated in B-Raf^V600E mutant A375 melanoma cell, B-Raf^V600E mutant COLO205 colon cancer cell, and SK-MEL-2 melanoma cell with wild type B-Raf (B-Raf^wt) and NRASQ^Q61R mutation. […] Cell viability was determined by measuring absorbance at 490 nm using EMAX® microplate reader (Molecular Devices). […]
pIC50: −log10 of the molar value.
Measured pIC50 values are reported for all entries that follow.

CCCS(=O)(=O)Nc1ccc(F)c(Nc2ccc3ncc(Nc4c(F)cccc4F)nc3c2)c1F	6.00 to 6.52
CCCS(=O)(=O)Nc1ccc(F)c(Nc2ccc3ncc(OC)nc3c2C#N)c1F	> 6.52
CCCS(=O)(=O)Nc1ccc(F)c(Nc2ccc3ncc(OC)nc3c2C(=O)O)c1F	5.00 to 6.00

Could you share which pIC50 value was measured for `CCCS(=O)(=O)Nc1ccc(F)c(Nc2ccc3ncc(OC)nc3c2C=O)c1F` ? > 6.52

`CCCS(=O)(=O)Nc1cccc(Nc2ccc3ncc(OC)nc3c2C#N)c1C#N` , same question. > 6.52

`COc1cnc2ccc(Nc3c(F)ccc(NS(=O)(=O)CCCF)c3F)c([N+](=O)[O-])c2n1` , same question. > 6.52

* * *

target: B-Raf^V600E kinase (Homo sapiens, UniProt P15056, V600E); assay: B-Raf V600E kinase assay ([33P] incorporation into MEK1 K97R); conditions: recombinant B-Raf^V600E, 8 μM ATP, 30 min, 30° C.; read-out: IC50 ranking against B-Raf^V600E kinase
Sequence (P15056 whole entry V600E): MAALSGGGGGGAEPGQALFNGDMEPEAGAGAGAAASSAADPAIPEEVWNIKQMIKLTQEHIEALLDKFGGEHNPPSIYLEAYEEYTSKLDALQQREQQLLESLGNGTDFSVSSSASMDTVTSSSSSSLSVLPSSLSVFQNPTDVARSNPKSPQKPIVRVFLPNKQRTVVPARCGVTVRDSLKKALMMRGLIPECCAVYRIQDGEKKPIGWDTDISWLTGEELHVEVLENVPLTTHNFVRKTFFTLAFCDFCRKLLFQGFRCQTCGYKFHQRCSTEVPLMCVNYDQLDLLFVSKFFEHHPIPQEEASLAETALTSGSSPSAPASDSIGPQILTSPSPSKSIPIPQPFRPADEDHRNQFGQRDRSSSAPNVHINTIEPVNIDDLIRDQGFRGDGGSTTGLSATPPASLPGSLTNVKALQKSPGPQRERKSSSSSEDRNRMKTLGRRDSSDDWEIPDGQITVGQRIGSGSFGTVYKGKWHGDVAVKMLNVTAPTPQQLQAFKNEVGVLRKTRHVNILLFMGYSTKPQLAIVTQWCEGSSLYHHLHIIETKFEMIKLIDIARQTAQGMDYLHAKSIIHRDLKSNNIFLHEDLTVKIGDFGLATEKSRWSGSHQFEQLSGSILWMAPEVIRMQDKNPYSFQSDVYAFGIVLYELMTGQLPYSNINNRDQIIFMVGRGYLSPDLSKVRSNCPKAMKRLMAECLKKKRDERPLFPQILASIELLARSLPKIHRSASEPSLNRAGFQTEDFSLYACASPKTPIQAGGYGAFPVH
Measured IC50 values are reported for all entries that follow.

Illustrative cases are given below, each with its answer.
CCCS(=O)(=O)Nc1ccc(F)c(Nc2ccc3ncc(OC)nc3c2C#N)c1F [compound 10]	< 300 nM
CCCS(=O)(=O)Nc1ccc(F)c(Nc2ccc3ncc(Nc4c(F)cccc4F)nc3c2)c1F [compound 2]	< 300 nM
CCCS(=O)(=O)Nc1ccc(C)c(Nc2ccc3ncc(N4CCOCC4)nc3c2C#N)c1 [compound 39]	300 to 1000 nM
CCCS(=O)(=O)Nc1ccc(F)c(Nc2ccc3ncc(O)nc3c2C#N)c1F [compound 15]	< 300 nM

Form: Entry = CCCS(=O)(=O)Nc1cc(Nc2ccc3ncc(OC)nc3c2C#N)ccc1C [compound 45] | System = B-Raf^V600E kinase (Homo sapiens, UniProt P15056, V600E) | IC50 = ____ 1000 to 10000 nM

COc1cnc2ccc(Nc3c(F)ccc(NS(=O)(=O)CCCF)c3F)c([N+](=O)[O-])c2n1 [compound 5] , same question. < 300 nM

CCCS(=O)(=O)N(C)c1ccc(F)c(Nc2ccc3ncc(OC)nc3c2C#N)c1F [compound 43] , same question. < 300 nM

CCCS(=O)(=O)Nc1ccc(F)c(Nc2ccc3ncc(N(C)C)nc3c2C#N)c1 [compound 28] , same question. 300 to 1000 nM

* * *

Measured IC50 values are reported for all entries that follow.
Biological target: C-Raf kinase (Homo sapiens)
Test: C-Raf kinase assay ([33P] incorporation into MEK1 K97R)
Conditions: recombinant C-Raf, 8 μM ATP, 30 min, 30° C.; read-out: IC50 ranking against C-Raf kinase
Description: Inhibition of kinase activity by a test compound disclosed herein was estimated by quantifying the amount of [^33P] incorporation of a substrate in the presence of the test compound. […] Reactions were incubated at 30° C. for 30 min and stopped by adding 3% phosphoric acid, harvested onto a 96-well GF/B UniFilter (PerkinElmer) using a unifilter harvester (PerkinElmer), and counted with a TopCount microplate scintillation counter (PerkinElmer). […]

Could you share which IC50 value was measured for `CCCS(=O)(=O)Nc1ccc(F)c(Nc2ccc3ncc(Nc4ccccc4F)nc3c2)c1F` ? < 300 nM

* * *

target: B-Raf kinase (Homo sapiens, UniProt P15056); experiment: B-Raf kinase assay ([33P] incorporation into MEK1 K97R); settings: recombinant B-Raf, 8 μM ATP, 30 min, 30° C.; read-out: IC50 ranking against B-Raf kinase
Sequence (P15056 whole entry): as the sequence (P15056 whole entry V600E) above, with E600V counted along it
observation-type: IC50

Illustrative cases are given below, each with its answer.
CCCS(=O)(=O)Nc1ccc(F)c(Nc2ccc3ncc(Nc4c(F)cccc4F)nc3c2)c1F	< 300 nM
CCCS(=O)(=O)Nc1ccc(F)c(Nc2ccc3ncc(N4CCOCC4)nc3c2C#N)c1	300 to 1000 nM
COc1cnc2ccc(Nc3c(F)ccc(NS(=O)(=O)CCCF)c3F)c([N+](=O)[O-])c2n1	< 300 nM
CCCS(=O)(=O)Nc1c(F)ccc(Nc2ccc3ncc(OC)nc3c2C#N)c1F	< 300 nM
CCCS(=O)(=O)Nc1ccc(F)c(Nc2cc3nc(OC)cnc3cc2C)c1F	1000 to 10000 nM

# input for lookup
Could you share which IC50 value was measured for `COc1cnc2ccc(Nc3cc(NS(=O)(=O)c4ccccc4)ccc3F)c(C#N)c2n1` ? < 300 nM

* * *

target: C-Raf kinase (Homo sapiens, UniProt P04049); assay: C-Raf kinase assay ([33P] incorporation into MEK1 K97R); conditions: recombinant C-Raf, 8 μM ATP, 30 min, 30° C.; read-out: IC50 ranking against C-Raf kinase
Sequence (P04049 whole entry): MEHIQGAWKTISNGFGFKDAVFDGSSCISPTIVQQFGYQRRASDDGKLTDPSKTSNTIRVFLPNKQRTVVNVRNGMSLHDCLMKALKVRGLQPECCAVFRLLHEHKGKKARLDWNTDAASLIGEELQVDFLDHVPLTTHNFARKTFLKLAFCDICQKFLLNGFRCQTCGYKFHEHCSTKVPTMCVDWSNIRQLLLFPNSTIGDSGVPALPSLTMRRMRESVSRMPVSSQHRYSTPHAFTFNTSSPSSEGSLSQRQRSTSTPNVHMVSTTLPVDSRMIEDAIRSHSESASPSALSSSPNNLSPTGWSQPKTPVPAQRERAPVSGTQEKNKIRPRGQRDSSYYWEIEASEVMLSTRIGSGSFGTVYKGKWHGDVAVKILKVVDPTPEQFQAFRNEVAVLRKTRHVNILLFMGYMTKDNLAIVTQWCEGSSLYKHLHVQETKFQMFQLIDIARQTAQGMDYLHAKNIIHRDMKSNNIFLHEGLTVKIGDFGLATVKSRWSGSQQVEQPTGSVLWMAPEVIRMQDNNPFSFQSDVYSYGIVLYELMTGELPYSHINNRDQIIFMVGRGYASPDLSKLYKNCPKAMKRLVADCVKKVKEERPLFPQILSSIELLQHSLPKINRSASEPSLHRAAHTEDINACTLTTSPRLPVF
observation-type: IC50

Illustrative cases are given below, each with its answer.
CCCS(=O)(=O)Nc1ccc(F)c(Nc2ccc3ncc(OC)nc3c2C(=O)OC)c1F	< 300 nM
CCCS(=O)(=O)Nc1cc(Nc2ccc3ncc(OC)nc3c2C#N)ccc1F	< 300 nM
N#Cc1c(Nc2c(F)ccc(NS(=O)(=O)c3ccccc3)c2Cl)ccc2ncc(N3CCOCC3)nc12	< 300 nM
CCCS(=O)(=O)Nc1ccc(F)c(Nc2ccc3ncc(N(C)C)nc3c2C#N)c1	< 300 nM
CCOc1cnc2ccc(Nc3cc(NS(=O)(=O)c4ccccc4)ccc3F)c(C#N)c2n1	< 300 nM

Could you share which IC50 value was measured for `CCCS(=O)(=O)Nc1ccc(F)c(Nc2ccc3ncc(OCCN4CCOCC4)nc3c2C#N)c1F` ? < 300 nM

`CCCS(=O)(=O)Nc1ccc(F)c(Nc2ccc3ncc(OCC)nc3c2C#N)c1F` , same question. < 300 nM

`CCCS(=O)(=O)Nc1ccc(F)c(Nc2ccc3ncc(OC)nc3c2C#N)c1F` , same question. < 300 nM

* * *

molecular target: B-Raf^V600E kinase (Homo sapiens, UniProt P15056, V600E); assay: B-Raf V600E kinase assay ([33P] incorporation into MEK1 K97R); conditions: recombinant B-Raf^V600E, 8 μM ATP, 30 min, 30° C.; read-out: IC50 ranking against B-Raf^V600E kinase
pIC50: −log10 of the molar value.
Measured pIC50 values are reported for all entries that follow.

Illustrative cases are given below, each with its answer.
CCCS(=O)(=O)Nc1ccc(F)c(Nc2ccc3ncc(OCCN(C)C)nc3c2[N+](=O)[O-])c1F	> 6.52
CCCS(=O)(=O)Nc1cccc(Nc2ccc3ncc(OC)nc3c2C#N)c1C#N	> 6.52
CCCS(=O)(=O)Nc1ccc(F)c(Nc2ccc3ncc(NC(=O)C4CC4)nc3c2)c1F	6.00 to 6.52
CS(=O)(=O)Nc1ccc(F)c(Nc2ccc3ncc(N4CCOCC4)nc3c2C#N)c1	5.00 to 6.00
N#Cc1c(Nc2c(F)ccc(NS(=O)(=O)CCCF)c2F)ccc2ncc(N3CCOCC3)nc12	> 6.52
CCCS(=O)(=O)Nc1ccc(F)c(Nc2ccc3ncc(Nc4c(F)ccc(NS(=O)(=O)CCC)c4F)nc3c2)c1F	> 6.52
CCCS(=O)(=O)Nc1ccc(F)c(Nc2ccc3ncc(Nc4ccc(F)cc4F)nc3c2)c1F	> 6.52

Form: Entry = `CCCS(=O)(=O)Nc1ccc(F)c(Nc2ccc3ncc(OC)nc3c2C(=O)OC)c1F` | System = B-Raf^V600E kinase (Homo sapiens, UniProt P15056, V600E) | pIC50 = ____ > 6.52

* * *

molecular target: B-Raf^V600E kinase (Homo sapiens, UniProt P15056, V600E); experiment: B-Raf V600E kinase assay ([33P] incorporation into MEK1 K97R); settings: recombinant B-Raf^V600E, 8 μM ATP, 30 min, 30° C.; read-out: IC50 ranking against B-Raf^V600E kinase
Measured IC50 values are reported for all entries that follow.

Illustrative cases are given below, each with its answer.
CCCS(=O)(=O)Nc1cccc(Nc2ccc3ncc(N4CCOCC4)nc3c2C#N)c1C	< 300 nM
CCCS(=O)(=O)Nc1ccc(F)c(Nc2ccc3ncc(OC)nc3c2N)c1F	300 to 1000 nM
CCCS(=O)(=O)Nc1ccc(F)c(Nc2ccc3ncc(OC)nc3c2C=O)c1F	< 300 nM

Could you share which IC50 value was measured for `CCCS(=O)(=O)Nc1ccc(F)c(Nc2ccc3ncc(N4CCOCC4)nc3c2C#N)c1F` ? < 300 nM

`CCCS(=O)(=O)Nc1cc(Nc2ccc3ncc(OC)nc3c2C#N)ccc1F` , same question. < 300 nM

`CCCS(=O)(=O)Nc1ccc(F)c(Nc2ccc3ncc(NC)nc3c2C#N)c1F` , same question. < 300 nM
